Readings of DC50 for the listed molecules
- SYSTEM NAME: BTK (Homo sapiens, UniProt Q06187)
- Construct: the BTK open reading frame (ORF) was first shuttled from a pcDNA-DEST40-BTK vector; expressed in transfected cells; host or cells: HEK293A (Invitrogen R70507), lentiviral transduction, blasticidin selection
- Sequence (Q06187 whole entry): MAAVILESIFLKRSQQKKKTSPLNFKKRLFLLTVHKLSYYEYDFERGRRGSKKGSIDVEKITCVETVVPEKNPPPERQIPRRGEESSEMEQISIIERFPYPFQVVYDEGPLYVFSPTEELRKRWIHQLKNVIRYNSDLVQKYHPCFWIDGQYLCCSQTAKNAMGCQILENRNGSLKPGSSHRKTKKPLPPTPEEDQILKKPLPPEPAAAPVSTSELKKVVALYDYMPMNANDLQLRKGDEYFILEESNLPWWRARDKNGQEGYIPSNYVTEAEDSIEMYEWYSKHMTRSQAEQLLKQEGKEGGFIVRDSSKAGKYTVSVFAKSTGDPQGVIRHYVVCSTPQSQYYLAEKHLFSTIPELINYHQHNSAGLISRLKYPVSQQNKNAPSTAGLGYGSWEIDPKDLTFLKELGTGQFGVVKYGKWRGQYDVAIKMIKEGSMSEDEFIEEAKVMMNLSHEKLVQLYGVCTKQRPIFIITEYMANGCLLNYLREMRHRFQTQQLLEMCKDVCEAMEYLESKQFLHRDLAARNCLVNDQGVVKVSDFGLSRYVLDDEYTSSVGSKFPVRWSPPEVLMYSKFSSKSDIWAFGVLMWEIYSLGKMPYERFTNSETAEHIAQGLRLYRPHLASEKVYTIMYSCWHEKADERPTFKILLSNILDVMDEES
- EXPERIMENT: BTK-GFP protein abundance flow cytometry assay in HEK293A
- Format: cell-based
- MEASUREMENT CONTEXT: concentration at which 50% maximal degradation was observed; HEK293A BTK-GFP sensor cells, 24 h
- Method: Degradation of BTK, CSK, ABL2, EPHA4 and YES1 was measured in HEK293A cells (Invitrogen R70507) expressing either BTK-GFP and RFP, CSK-GFP and mCherry, GFP-ABL2 and mCherry, EPHA4-GFP and mCherry, or YES1-GFP and mCherry from a stably integrated bicistronic BTK-GFP-iresRFP, CSK-GFP-CHYSEL-mCherry, GFP-ABL2-CHYSEL-mCherry, EPHA4-GFP-CHYSEL-mCherry, or YES1-GFP-CHYSEL-mCherry construct, respectively. […]
Write down the numeric answer in nM and omit the unit.

Here's what some known entries look like.
[[record]]
molecule = "Cc1c(NC(=O)c2ccc(C(C)(C)O)cc2F)cc(F)cc1-c1ncnc2[nH]c(-c3ccc(CN4CCC(CCNC(=O)COc5cccc(N6CCC(=O)NC6=O)c5)CC4)cc3)cc12 [Compound 11]"
system_name = "BTK (Homo sapiens, UniProt Q06187)"
recorded_endpoint = "DC50"
value = 2.2

[[record]]
molecule = "Cc1c(NC(=O)c2ccc(C(C)(C)O)cc2F)cc(F)cc1-c1ncnc2[nH]c(-c3ccc(CN(C)CCCCCCOc4cccc(N5CCC(=O)NC5=O)c4)cc3)cc12 [Compound 16]"
system_name = "BTK (Homo sapiens, UniProt Q06187)"
recorded_endpoint = "DC50"
value = 22.6

[[record]]
molecule = "Cc1cc(OCCN2CCC(OC3CCN(Cc4ccc(-c5cc6c(-c7cc(F)cc(NC(=O)c8ccc(C(C)(C)O)cc8F)c7C)ncnc6[nH]5)cc4)CC3)CC2)ccc1N1CCC(=O)NC1=O [Compound 30]"
system_name = "BTK (Homo sapiens, UniProt Q06187)"
recorded_endpoint = "DC50"
value = 9.8


[Q] Missing value: DC50, BTK (Homo sapiens, UniProt Q06187), entry Cc1c(NC(=O)c2ccc(C(C)(C)O)cc2F)cc(F)cc1-c1ncnc2[nH]c(-c3ccc(CN4CCN(CCN5CCC(Oc6ccc(N7CCC(=O)NC7=O)cc6)CC5)CC4)cc3)cc12 [Compound 28] . Fill in?
[A] 9.2

[Q] // next record Cc1c(NC(=O)c2ccc(C(C)(C)O)cc2F)cc(F)cc1-c1ncnc2[nH]c(-c3ccc(CN(C)CCCNC(=O)COc4cccc(N5CCC(=O)NC5=O)c4)cc3)cc12 [Compound 12]
[A] 10.7

[Q] // next record Cc1c(NC(=O)c2ccc(C(C)(C)O)cc2F)cc(F)cc1-c1ncnc2[nH]c(-c3ccc(CN4CCC5(CCN(CCOc6ccc(N7CCC(=O)NC7=O)c(Cl)c6)CC5)CC4)cc3)cc12 [Compound 31]
[A] 55.7

[Q] // next record Cc1c(NC(=O)c2ccc(C(C)(C)O)cc2F)cc(F)cc1-c1ncnc2[nH]c(-c3ccc(CN4CCN(CCNC(=O)COc5cccc(N6CCC(=O)NC6=O)c5)CC4)cc3)cc12 [Compound 09]
[A] 3.2

[Q] // next record COc1ccc(C(=O)N2CCC3(CCN(C(=O)CN4CCN(c5cc(Nc6ncc(C(=O)Nc7c(C)cccc7Cl)s6)nc(C)n5)CC4)CC3)CC2)cc1N1CCC(=O)NC1=O [compound 07]
[A] 9.3

[Q] // next record Cc1c(NC(=O)c2ccc(C(C)(C)O)cc2F)cc(F)cc1-c1ncnc2[nH]c(-c3ccc(CN4CCC5(CC4)CN(CCCc4ccc(N6CCC(=O)NC6=O)cc4)CCO5)cc3)cc12 [Compound 20]
[A] 27.7

[Q] // next record Cc1c(NC(=O)N2C[C@H](CC(C)C)[C@@H](O)C2)cc(F)cc1-c1ncnc2[nH]c(-c3ccc(CN4CCN(CCOc5ccc(N6CCC(=O)NC6=O)cc5)CC4)cc3)cc12 [Compound 32]
[A] 1.4

[Q] // next record Cc1ccc(S(=O)(=O)NCCCCCNCc2ccc(-c3cc4c(-c5cc(F)cc(NC(=O)c6ccc(C(C)(C)O)cc6F)c5C)ncnc4[nH]3)cc2)cc1N1CCC(=O)NC1=O [Compound 18]
[A] 307

[Q] // next record COc1cc(C(=O)N2CCC(OC3CCN(Cc4ccc(-c5cc6c(-c7cc(F)cc(NC(=O)c8ccc(C(C)(C)O)cc8F)c7C)ncnc6[nH]5)cc4)CC3)CC2)ccc1N1CCC(=O)NC1=O [Compound 24]
[A] 24

[Q] // next record COc1ccc(C(=O)N2CCC3(CCN(C(=O)CCCCCCCN4CCN(c5cc(Nc6ncc(C(=O)Nc7c(C)cccc7Cl)s6)nc(C)n5)CC4)CC3)CC2)cc1N1CCC(=O)NC1=O [compound 06]
[A] 4.7

[Q] // next record Cc1c(NC(=O)c2ccc(C(C)(C)O)cc2F)cc(F)cc1-c1ncnc2[nH]c(-c3ccc(CNCCCCCCn4cc(-c5cccc(N6CCC(=O)NC6=O)c5)nn4)cc3)cc12 [Compound 19]
[A] 229

Provenance of the data: patent US20220387602A1
